As shown below, each of these compounds has a reported GI50 value.
system: SK-MEL-5; assay: NCI tumour cell line growth inhibition, 48 h
Active and inactive are the calls of the source. Cut-off read from the data, not from the text of the source: active = GI50 up to about 1.1 µM and inactive = higher.

COMPOUND: O=C1/C(=C/c2ccccc2)CCc2ccccc21
GI50: 17.7 µM (inactive)

COMPOUND: NC(=O)CC(N)c1nnn[nH]1 (stereo not given)
GI50: > 100 µM (inactive)

COMPOUND: COc1ccc(/C=C2/C[N+](C)(C)C/C(=C/c3ccc(OC)cc3)C2=O)cc1
GI50: 23.4 µM (inactive)

COMPOUND: CC(C)C1COC(c2cccc(C3=N[C@@H](C(C)C)CO3)n2)=N1 (stereo not given in full)
GI50: > 100 µM (inactive)

COMPOUND: C=C1c2nc3ccccc3n2C=C(c2ccccc2)N1c1ccc(Cl)cc1
GI50: 15.3 µM (inactive)

COMPOUND: CN(C)/N=N/c1ccc(C(N)=O)cc1
GI50: > 100 µM (inactive)

COMPOUND: COC1CCN(N(C)C)O1 (stereo not given)
GI50: > 100 µM (inactive)

COMPOUND: CCOC(=O)C1(C/C=C/CCl)CCCC1=O (stereo not given)
GI50: 15.6 µM (inactive)

COMPOUND: O=C(CNc1ccccc1[N+](=O)[O-])Nn1c(-c2ccccc2)nc2ccccc2c1=O
GI50: 10.4 µM (inactive)

COMPOUND: N#Cc1cccc(N2C(=O)c3c(c(-c4ccccc4)c(-c4ccc(Sc5ccc(-c6c(-c7ccccc7)c7c(c(-c8ccccc8)c6-c6ccccc6)C(=O)N(c6cccc(C#N)c6)C7=O)cc5)cc4)c(-c4ccccc4)c3-c3ccccc3)C2=O)c1
GI50: 77.6 µM (inactive)

====

As shown below, each of these compounds has a reported GI50 value.
system: PC-3; test: NCI tumour cell line growth inhibition, 48 h
Calls of active or inactive are those of the source. No stated cut-off is given here; in the data, active = GI50 up to about 1.1 µM and inactive = higher.

SMILES_REPRESENTATION: CC(=O)O[C@H]1C(=O)[C@@]2(C)[C@H]([C@H](OC(=O)c3ccccc3)[C@]3(O)C[C@H](OC(=O)[C@H](O)[C@@H](NC(=O)c4ccccc4)c4ccc5ccccc5c4)C(C)=C1C3(C)C)[C@]1(OC(C)=O)CO[C@@H]1C[C@@H]2O
GI50: 0.0553 µM (active)

SMILES_REPRESENTATION: COC(=O)[C@@H](NC(=O)[C@H](N)Cc1ccc(N(CCCl)CCCl)cc1)C(C)C
GI50: 21.7 µM (inactive)

SMILES_REPRESENTATION: Cc1ccc(/N=N/c2ccc(O)c(CN(C)C)c2)cc1
GI50: 19.4 µM (inactive)

SMILES_REPRESENTATION: O=c1c2cc(I)ccc2nc(SCc2nnco2)n1Cc1ccccc1
GI50: > 100 µM (inactive)

====

tested on: UACC-62; assay: NCI tumour cell line growth inhibition, 48 h
Active and inactive are the calls of the source. Rule as the data show it: active = GI50 up to about 1.1 µM and inactive = higher.

COMPOUND: CC1(C)OC[C@@H](/C=C\CCO[Si](c2ccccc2)(c2ccccc2)C(C)(C)C)N1C(=O)c1ccccc1
GI50: 9.91 µM (inactive)

COMPOUND: O=C1NC(=S)N/C1=C/c1c(-c2ccccc2)[nH]c2ccccc12
GI50: 11.7 µM (inactive)

COMPOUND: CNC(=O)c1nnn(C2CCCCC2)c1S
GI50: > 100 µM (inactive)

COMPOUND: CSc1ccc(NC(=O)C2c3[nH]c4ccccc4c3C3CCC(C(C)(C)C)CC3C2C(=O)O)cc1 (stereo not given)
GI50: 17.4 µM (inactive)

COMPOUND: O=C(N/N=C\c1cccc2ccccc12)Nc1ccc([N+](=O)[O-])cc1
GI50: 18.1 µM (inactive)

COMPOUND: CCN(CC)c1cc2c3c(c1)CCCN3CCC2
GI50: > 10 µM (inactive)

COMPOUND: COc1ccc2c(c1)CC[C@@H]1[C@@H]2CC[C@]2(C)C(=O)/C(=C/c3ccc(N(C)C)cc3)C[C@@H]12
GI50: 32.6 µM (inactive)

COMPOUND: CC(C)c1ccc2c(c1)CCC1C(C)(C)[C@@H](O)CC[C@]21C (stereo not given in full)
GI50: 42.3 µM (inactive)

COMPOUND: CS/C(C)=N/OC(=O)NCCCCNc1ccc(N=[N+]=[N-])cc1
GI50: 21.8 µM (inactive)

COMPOUND: CC(C)=Cc1cc(C(=O)NCCNC(=O)c2cc(C=C(C)C)nc(NC#N)n2)nc(NC#N)n1
GI50: > 100 µM (inactive)
